# test_system: acetylcholine receptor
# procedure_details: SPR, receptor immobilised on chip, peptide at 10 uM
quantity_measured: Binding affinity (RU)

Recorded Binding affinity (RU), per entry:
RHDVKK [6mer-2-993]
29
KESGKR [6mer-2-980]
34
RHEHRR [6mer-2-910]
21
KAMFRR [6mer-2-972]
38
KIDHRR [6mer-2-943]
41
KKAFKK [6mer-2-979]
22
KNWARR [6mer-2-986]
27
KCHFRR [6mer-2-991]
30

1: KEPHRR [6mer-2-978]
2: KTNWRK [6mer-2-947]
# argmax over Binding affinity (RU) for candidates 1 and 2 Could you answer with the label of the item you picked?
2

I: KYNKRR [6mer-2-950]
II: RPNARR [6mer-2-949]
Pick one: I or II . Which one has the lower reported Binding affinity (RU)? Could you answer with the label of the item you picked?
I

1: RDCVKR [6mer-2-960]
2: RADEKK [6mer-2-951]
# argmax over Binding affinity (RU) for candidates 1 and 2 Could you answer with the label of the item you picked?
2
(2: 42 RU, 1: 29 RU)
